# target_under_test: Alpha-1A adrenergic receptor (Homo sapiens)
# Sequence (P35348 whole entry): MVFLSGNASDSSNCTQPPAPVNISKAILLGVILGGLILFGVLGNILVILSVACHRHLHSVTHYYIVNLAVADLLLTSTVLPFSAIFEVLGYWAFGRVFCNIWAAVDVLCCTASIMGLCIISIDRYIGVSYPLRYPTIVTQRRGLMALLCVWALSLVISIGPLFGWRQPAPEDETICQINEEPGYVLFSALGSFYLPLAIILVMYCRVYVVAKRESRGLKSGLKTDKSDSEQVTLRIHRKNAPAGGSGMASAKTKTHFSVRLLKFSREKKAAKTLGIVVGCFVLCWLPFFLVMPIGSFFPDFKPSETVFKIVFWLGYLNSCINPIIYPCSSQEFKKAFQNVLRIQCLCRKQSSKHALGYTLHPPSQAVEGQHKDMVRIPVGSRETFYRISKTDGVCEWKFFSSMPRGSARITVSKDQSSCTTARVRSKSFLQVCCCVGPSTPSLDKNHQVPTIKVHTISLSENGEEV
readout_type: pKi
Just the number, please; pKi means minus log10 of the concentration in mol/L.

Exercise: Param item = NCCCCCCn1cc(CCCCN2CCC(c3ccc(-c4cc(C(=O)O)cc5cc(-c6ccc(C(F)(F)F)cc6)ccc45)cc3)CC2)nn1 ; retrieve measured pKi.
Key: 5.75

----------
# target_under_test: Voltage-gated inwardly rectifying potassium channel KCNH2 (Homo sapiens)
# Sequence (Q12809 whole entry): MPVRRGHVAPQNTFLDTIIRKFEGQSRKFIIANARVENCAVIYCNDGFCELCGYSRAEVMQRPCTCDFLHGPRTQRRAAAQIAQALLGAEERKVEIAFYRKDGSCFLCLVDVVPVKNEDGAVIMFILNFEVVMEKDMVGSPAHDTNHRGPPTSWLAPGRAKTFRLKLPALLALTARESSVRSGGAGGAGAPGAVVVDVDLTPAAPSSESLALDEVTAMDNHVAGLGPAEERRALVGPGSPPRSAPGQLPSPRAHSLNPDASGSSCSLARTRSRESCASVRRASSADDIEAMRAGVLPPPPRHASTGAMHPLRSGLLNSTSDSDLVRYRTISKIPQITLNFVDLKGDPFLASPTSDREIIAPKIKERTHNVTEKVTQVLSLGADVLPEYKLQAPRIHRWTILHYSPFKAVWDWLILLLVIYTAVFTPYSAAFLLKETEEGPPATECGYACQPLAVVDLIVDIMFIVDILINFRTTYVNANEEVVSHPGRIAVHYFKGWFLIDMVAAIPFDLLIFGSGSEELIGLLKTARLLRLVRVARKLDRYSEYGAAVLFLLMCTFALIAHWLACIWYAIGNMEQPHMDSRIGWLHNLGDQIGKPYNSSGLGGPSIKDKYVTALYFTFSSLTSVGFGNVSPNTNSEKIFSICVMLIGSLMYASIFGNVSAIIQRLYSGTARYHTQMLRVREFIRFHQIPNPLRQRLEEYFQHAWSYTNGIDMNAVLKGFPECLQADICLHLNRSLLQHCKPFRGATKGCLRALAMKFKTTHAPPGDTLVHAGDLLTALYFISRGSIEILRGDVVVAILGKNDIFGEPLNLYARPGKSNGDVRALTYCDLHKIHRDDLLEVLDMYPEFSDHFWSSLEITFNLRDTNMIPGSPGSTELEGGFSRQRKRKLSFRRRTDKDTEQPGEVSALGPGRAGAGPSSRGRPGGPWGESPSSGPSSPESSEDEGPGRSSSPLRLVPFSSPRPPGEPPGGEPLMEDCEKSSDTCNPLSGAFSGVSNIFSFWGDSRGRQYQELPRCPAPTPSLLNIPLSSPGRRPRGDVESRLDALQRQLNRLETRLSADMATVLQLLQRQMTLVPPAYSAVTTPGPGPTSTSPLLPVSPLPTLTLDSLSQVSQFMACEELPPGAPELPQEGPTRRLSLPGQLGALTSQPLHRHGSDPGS
# method_description: Inhibition of human ERG
readout_type: IC50
Form field: result (number plus unit)

Exercise: Entry CCN(CC)CC.NC(=O)c1ccc(-c2cc(C(=O)O)cc(-n3cc(-c4ccc(C(F)(F)F)cc4)nn3)c2)cc1 , system Voltage-gated inwardly rectifying potassium channel KCNH2 (Homo sapiens): what IC50 was measured?
Key: 166 nM

----------
# method_description: Half life in Sprague-Dawley rat plasma at 0.5 mg/kg, iv
# Format: ADME, organism-based
readout_type: half-life
Form field: result (number plus unit)

Exercise: Param item = CCN(CC)CC.NC(=O)c1ccc(-c2cc(C(=O)O)cc(-n3cc(-c4ccc(C(F)(F)F)cc4)nn3)c2)cc1 ; retrieve measured half-life.
Key: 12 min

----------
# target_under_test: UniProt:P41145
# Sequence (P41145 whole entry): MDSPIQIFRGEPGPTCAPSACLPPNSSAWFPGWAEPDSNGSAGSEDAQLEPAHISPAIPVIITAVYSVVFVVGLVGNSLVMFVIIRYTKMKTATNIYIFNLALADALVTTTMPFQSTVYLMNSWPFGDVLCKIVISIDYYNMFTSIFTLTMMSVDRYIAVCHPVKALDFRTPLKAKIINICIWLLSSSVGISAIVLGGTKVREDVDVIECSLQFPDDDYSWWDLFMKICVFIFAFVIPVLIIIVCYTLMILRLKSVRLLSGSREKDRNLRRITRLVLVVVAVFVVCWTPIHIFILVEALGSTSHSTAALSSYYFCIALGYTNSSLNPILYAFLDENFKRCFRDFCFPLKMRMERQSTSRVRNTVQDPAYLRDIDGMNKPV
readout_type: pKi
Just the number, please; pKi means minus log10 of the concentration in mol/L.

Exercise: Param item = CC(C)(C)OC(=O)NCCCCCCn1cc(CCCCN2CCC(c3ccc(-c4cc(C(=O)O)cc5cc(-c6ccc(C(F)(F)F)cc6)ccc45)cc3)CC2)nn1 ; retrieve measured pKi.
Key: 5.39

----------
# target_under_test: Cytochrome P450 2C9 (Homo sapiens, UniProt P11712)
# Sequence (P11712 whole entry): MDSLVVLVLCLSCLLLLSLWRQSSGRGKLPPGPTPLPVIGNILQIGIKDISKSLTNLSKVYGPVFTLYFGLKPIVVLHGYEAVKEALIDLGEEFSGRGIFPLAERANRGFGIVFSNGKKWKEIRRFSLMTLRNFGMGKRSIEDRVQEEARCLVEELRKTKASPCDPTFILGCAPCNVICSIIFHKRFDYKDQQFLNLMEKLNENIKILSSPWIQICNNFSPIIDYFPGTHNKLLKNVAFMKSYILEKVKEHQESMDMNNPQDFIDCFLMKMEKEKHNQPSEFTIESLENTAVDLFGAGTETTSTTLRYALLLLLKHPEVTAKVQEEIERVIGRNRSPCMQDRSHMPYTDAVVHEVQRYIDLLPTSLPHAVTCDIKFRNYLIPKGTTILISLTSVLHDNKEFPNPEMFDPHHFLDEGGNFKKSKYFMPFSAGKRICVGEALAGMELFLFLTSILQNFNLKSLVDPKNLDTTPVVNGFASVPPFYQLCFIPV
pIC50: −log10 of the molar value.
readout_type: pIC50

Exercise: Param item = CCN(CC)CC.NC(=O)c1ccc(-c2cc(C(=O)O)cc(-n3cc(-c4ccc(C(F)(F)F)cc4)nn3)c2)cc1 ; retrieve measured pIC50.
Key: ≤ 4.52

----------
# target_under_test: Delta-type opioid receptor (Homo sapiens, UniProt P41143)
# Sequence (P41143 whole entry): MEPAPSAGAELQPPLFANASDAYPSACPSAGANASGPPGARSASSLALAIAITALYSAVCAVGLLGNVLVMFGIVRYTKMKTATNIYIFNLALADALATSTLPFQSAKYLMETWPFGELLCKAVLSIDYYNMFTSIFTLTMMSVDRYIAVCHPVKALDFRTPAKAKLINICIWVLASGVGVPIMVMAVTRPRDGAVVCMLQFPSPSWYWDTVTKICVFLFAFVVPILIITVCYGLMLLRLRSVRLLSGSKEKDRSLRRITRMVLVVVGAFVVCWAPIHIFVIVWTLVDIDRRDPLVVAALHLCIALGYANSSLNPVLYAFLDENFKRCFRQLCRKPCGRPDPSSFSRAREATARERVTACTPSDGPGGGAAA
# method_description: Displacement of [3H]-DADLE from human delta opioid receptor expressed in HEK293 cells after 90 mins by scintillation counting method
readout_type: Ki (µM)
Report the value in µM with no unit label.

Exercise: Param item = NS(=O)(=O)c1ccc(-c2cc(C(=O)O)cc(-n3cc(-c4ccc(C(F)(F)F)cc4)nn3)c2)cc1 ; retrieve measured Ki.
Key: 3.26

Exercise: Param item = CCN(CC)CC.NC(=O)c1ccc(-c2cc(C(=O)O)cc(-n3cc(-c4ccc(C(F)(F)F)cc4)nn3)c2)cc1 ; retrieve measured Ki.
Key: 1.47
